protocol.description: Quantitative highthroughput screen to assess conditional lethalithy of P12 Ichikawa cells grown in RPMI1640 with dialyzed fetal bovine serum (RPMI+ds) (AID 1963880); note: nearly all actives have a fitted effect of over 35% in size
study.conditions: ATP luminescence, 48 h; P12-Ichikawa viability; series mostly up to 45.8 µM
Records with an inconclusive call do not appear. Calls of active or inactive are those of the source. Calls come from the whole dose curve; as a rule, active = well fitted cell-killing curve with a large enough effect; inconclusive = small, poorly fitted or top-dose-only effect; inactive = flat fitted curve, though single readings scatter.
I would appreciate it if you answered using one of these outcomes: true = active, false = inactive

Solved cases below.
Clc1cccc(Cl)c1NC1=NCCN1 ... false
CCOc1cc(C(C)(C)C)ccc1C1=N[C@@](C)(c2ccc(Cl)cc2)[C@@](C)(c2ccc(Cl)cc2)N1C(=O)N1CCN(CC(=O)N2CCOCC2)CC1 ... false
CC(C)(OCc1nn(Cc2ccccc2)c2ccccc12)C(=O)O ... false
NC(=O)c1ccc(-c2nc(-c3ccc4c(c3)OCO4)c(-c3ccccn3)[nH]2)cc1 ... false

Task item: How was CNC1CCC(N(Cc2cccc(-c3ccncc3)c2)C(=O)c2sc3ccccc3c2Cl)CC1 (stereo not given) classified in this test?
Reply: true

Task item: Please share the test call associated with O=C(O)c1nc(=O)[nH]c(=O)[nH]1 .
Reply: false

Task item: Outcome logged for COc1nc(C)nc(Cl)c1NC1=NCCN1 in this assay:
Reply: false

Task item: // return assay outcome for O=C1NC(=O)C(c2ccccc2[N+](=O)[O-])=C1Nc1ccc(O)c(Cl)c1
Reply: true

Task item: // outcome(item) with item = O=S(=O)(NCCNCC=Cc1ccc(Br)cc1)c1cccc2cnccc12
Reply: false

Task item: How was CCC(=O)OCC(=O)[C@@]1(OC(=O)CC)[C@@H](C)C[C@@H]2[C@H]3CCC4=CC(=O)C=C[C@]4(C)[C@@]3(F)[C@@H](O)C[C@@]21C classified in this test?
Reply: true

* * *

protocol.description: Quantitative highthroughput screen to assess conditional lethalithy of SEM cells grown in Human Plasma-Like Medium with dialyzed fetal bovine serum (HPLM+ds) (AID 1963882); note: nearly all actives have a fitted effect of over 35% in size
study.conditions: SEM B-ALL cells in HPLM+ds, CellTiter-Glo viability, 48 h; series mostly up to 45.8 µM
Inconclusive results are not listed. Active and inactive are the calls of the source. The call rests on the fitted dose curve; in most records, active means well fitted cell-killing curve with a large enough effect; inconclusive means small, poorly fitted or top-dose-only effect, or effect the other way; inactive means no such curve, though single readings can be large or run the other way.
Parameter call: string, one of active, inactive

A selection of reference data follows.
COc1cccc(OC)c1-c1cc(C(=O)NC2(C(=O)O)C3CC4CC(C3)CC2C4)nn1-c1ccnc2cc(Cl)ccc12 (centres undefined) ... inactive
O=c1c(-c2ccc(O)cc2)coc2cc(OC3O[C@H](CO)[C@H](O)[C@H](O)[C@H]3O)cc(O)c12 (some centres undefined) ... inactive
CCn1c(-c2nonc2N)nc2c(C#CC(C)(C)O)ncc(OC[C@H]3CCCNC3)c21 ... active
CN(C)CCCC1(c2ccc(F)cc2)OCc2cc(C#N)ccc21 (centres undefined) ... inactive
CCOC(=O)C(C)Oc1cccc2c(=O)n(CC(=O)Nc3ccc4c(c3)OCCO4)ccc12 (centres undefined) ... inactive
Nc1ccc(S(N)(=O)=O)cc1 ... inactive
NC1(c2ccc(-c3nc4ccn5c(=O)[nH]nc5c4cc3-c3ccccc3)cc2)CCC1 ... active
Nc1nc(F)nc2c1ncn2[C@@H]1O[C@H](CO)[C@@H](O)[C@@H]1O ... active
CN1CCN(c2ncc(-c3cc(Cl)cc(Cl)c3Cl)c(N)n2)CC1 ... inactive
CC1(C)[C@H]2CC[C@]3(C)[C@@H](C(=O)C=C4[C@@H]5C[C@@](C)(C(=O)O)CC[C@]5(C)CC[C@]43C)[C@@]2(C)CC[C@@H]1O ... inactive

Task item: Hey, what did the test say about CCCS(=O)(=O)Nc1ccc(F)c(C(=O)c2c[nH]c3ncc(-c4ccc(Cl)cc4)cc23)c1F ?
Reply: inactive

Task item: Name the outcome recorded for COc1ccc(-c2oc3cc(OC)ccc3c2C(=O)c2ccc(C#N)cc2)cc1 in the assay.
Reply: inactive

Task item: Dear colleague, could you share the recorded outcome for O=C1C(Cl)=C(NCCN2CCOCC2)C(=O)c2ncccc21 when you have a moment?
Reply: active

Task item: Tell me the assay call for CS(=O)(=O)c1ccc(-c2cnc(N)c(C(=O)Nc3ccccc3)n2)cc1 please.
Reply: active
